- TARGET_OF_ASSAY: Human Mer (residues R557-E882 with H628Q and R794A) (Homo sapiens (Human))
- Sequence (Q12866 557-882, stated change not applied): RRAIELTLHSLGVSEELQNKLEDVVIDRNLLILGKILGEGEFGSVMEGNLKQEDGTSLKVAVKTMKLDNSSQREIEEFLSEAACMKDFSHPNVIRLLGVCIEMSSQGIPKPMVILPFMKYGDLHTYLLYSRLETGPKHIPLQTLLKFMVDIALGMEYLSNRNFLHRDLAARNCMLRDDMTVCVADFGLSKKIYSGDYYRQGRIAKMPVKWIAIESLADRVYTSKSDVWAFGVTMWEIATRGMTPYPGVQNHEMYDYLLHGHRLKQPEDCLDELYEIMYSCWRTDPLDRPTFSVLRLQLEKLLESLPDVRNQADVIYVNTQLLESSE
- ASSAY_METHOD_TEXT: Human Mer kinase assay (33P radiometric, KinaseProfiler)
- CONDITION_NOTES: 10 μM ATP
- Description: Kinase activity and compound inhibition were investigated using the ^33P-Phosphoryl transfer radiometric kinase assay, performed using the KinaseProfiler™ service of Eurofins Pharma Discovery Services UK Limited. Dose-response experiments were performed using nine compound concentrations in a 96-well microtiter plate. […] IC50 values were calculated by nonlinear regression analysis using the sigmoidal dose-response (variable slope) curve fit on XLFit version 5.3 (ID Business Solutions). […]
# key: entry, value: IC50
MEASURE_NAME: IC50

- CNC(=O)c1ccc2nccc(Oc3ccc(NC(=O)C4(C(=O)Nc5ccc(F)cc5)CC4)cc3)c2c1 [Compound 59]: 10 to 100 nM
- COC(=O)c1cc2nccc(Oc3ccc(NC(=O)C4(C(=O)Nc5ccc(F)cc5)CC4)cc3)c2cc1C [Compound 140]: ≤ 10 nM
- COc1cc2nccc(Oc3ccc(NC(=O)C4(C(=O)Nc5ccc(F)cc5)CC4)cc3)c2cc1C(N)=O [Compound 7]: ≤ 10 nM
- COc1cc2nccc(Oc3ccc(NC(=O)C4(C(=O)Nc5ccc(F)cc5)CC4)cc3)c2cc1-c1cccnc1 [Compound 201]: ≤ 10 nM
- CN1CC(NC(=O)c2ccc3nccc(Oc4ccc(NC(=O)C5(C(=O)Nc6ccc(F)cc6)CC5)cc4)c3c2)C1 [Compound 60]: 10 to 100 nM
- COc1cc2nccc(Oc3ccc(NC(=O)C4(C(=O)Nc5ccc(F)cc5)CC4)cc3)c2cc1-c1nnco1 [Compound 220]: ≤ 10 nM
- Cc1cc2c(Oc3ccc(NC(=O)C4(C(=O)Nc5ccc(F)cc5)CC4)cc3)ccnc2cc1C(=O)O [Compound 141]: > 1000 nM
- COc1cc2nccc(Oc3ccc(NC(=O)C4(C(=O)Nc5ccc(F)cc5)CC4)cc3)c2cc1-c1ccncc1 [Compound 202]: ≤ 10 nM
- COc1cc2nccc(Oc3ccc(NC(=O)C4(C(=O)Nc5ccc(F)cc5)CC4)cc3)c2cc1S(C)(=O)=O [Compound 210]: ≤ 10 nM
- COc1cc2nccc(Oc3ccc(NC(=O)C4(C(=O)Nc5ccc(F)cc5)CC4)cc3)c2cc1-c1ncco1 [Compound 45]: ≤ 10 nM
- COc1cc2nccc(Oc3ccc(NC(=O)C4(C(=O)Nc5ccc(F)cc5)CC4)cc3)c2cc1C1(O)COC1 [Compound 196]: ≤ 10 nM
- COc1cc2nccc(Oc3ccc(NC(=O)C4(C(=O)Nc5ccc(F)cc5)CC4)cc3)c2cc1-c1c(C)noc1C [Compound 184]: ≤ 10 nM
- COc1cc2nccc(Oc3ccc(NC(=O)C4(C(=O)Nc5ccc(F)cc5)CC4)cc3)c2cc1-c1ccn[nH]1 [Compound 185]: ≤ 10 nM
- COc1cc2nccc(Oc3ccc(NC(=O)C4(C(=O)Nc5ccc(F)cc5)CC4)cc3Cl)c2cc1C(=O)O [Compound 130]: 10 to 100 nM
- CNC(=O)c1cc2c(Oc3ccc(NC(=O)C4(C(=O)Nc5ccc(F)cc5)CC4)cc3F)ccnc2cc1OC [Compound 135]: ≤ 10 nM
- COc1cc2nccc(Oc3ccc(NC(=O)C4(C(=O)Nc5ccc(F)cc5)CC4)cc3)c2cc1-c1cnoc1 [Compound 183]: ≤ 10 nM
- COc1cc2nccc(Oc3ccc(NC(=O)C4(C(=O)Nc5ccc(F)cc5)CC4)cc3)c2cc1C(=O)NC1CN(C)C1 [Compound 14]: ≤ 10 nM
- COC(=O)c1cc2c(Oc3ccc(NC(=O)C4(C(=O)Nc5ccc(F)cc5)CC4)cc3Cl)ccnc2cc1OC [Compound 128]: ≤ 10 nM
- COc1cc2nccc(Oc3ccc(NC(=O)C4(C(=O)Nc5ccc(F)cc5)CC4)cc3)c2cc1C(=O)NC1COC1 [Compound 13]: ≤ 10 nM
- COCCOc1cc2nccc(Oc3ccc(NC(=O)C4(C(=O)Nc5ccc(F)cc5)CC4)cc3)c2cc1C(N)=O [Compound 103]: ≤ 10 nM
- COc1cc2nccc(Oc3ccc(NC(=O)C4(C(=O)Nc5ccc(F)cc5)CC4)cc3)c2cc1C(=O)NCCN1CCOCC1 [Compound 12]: ≤ 10 nM
- COc1cc2nccc(Oc3ccc(NC(=O)C4(C(=O)Nc5ccc(F)cc5)CC4)cc3F)c2cc1C(N)=O [Compound 133]: ≤ 10 nM

Hey, just so you know, these numbers are from patent US11542259B2.
